Molecular target: SARS-CoV-2 Spike protein (wild type) (SARS-CoV-2, UniProt P0DTC2 14-1208)
Assay: SPR (Carterra LSA), mAb coupled to HC30M chip, Spike titrated; Example 4 methods
assay_readout: pKd
// field semantics: pKd = negative decimal log of concentration (mol/L)

Example entries begin here.
anti-SARS-CoV-2 antibody 1098 (antibody, V domains shown) VH: EVQLLESGGGLVQPGGSLRLSCAASGFTFNSYAMSWVRQAPGKGLEWVSAISGSGGSTYYADSVKGRFSISRDNAKNTLFLQMNSLRAEDTAVYYCARSGGNFDYWGQGTLVTVSL VL: SYELTQPPSVSVSPGQTARITCSGDVLAKRYVYWYQQKPGQAPVLVIYRDSERPSGIPERFSGSSSGTTVTLTISGVQAVDEADYYCQSADSSGTLYVFGTGTKVTVL :: 9.76
anti-SARS-CoV-2 antibody 1081 (antibody, V domains shown) VH: QITLKESGPTLVKPTQTLTLTCTFSGFSLSTSRVGVGWIRQPPGKALEWLALIYWNDGKLYSPSLKSRLTITKDTSKNQVVLTLTNMDSVDTATYFCARGQTGTPLYDAFDFWGRGTMVTVSS VL: SYVLTQPPSVSVAPGKTAGITCGGDNFETKSVSWYQHKPGQAPVLVVYGNANRPSGIPERFSASKSGNTATLTISRVEAGDEADYYCQVWDSRSFHYVVFGGGTKLTVL :: 10.03
anti-SARS-CoV-2 antibody 1091 (antibody, V domains shown) VH: QVQLVESGGGVVQPGRSLRLSCAASGFTFSNYAMHWVRQAPGKGLEWVAVISYDGSNKYYADSVKGRFTISRDNSKNTLYLQMNSLRAEDTAVYYCARDKLLWFGELLFDMDVWGKGTTVTVSS VL: DIQMTQSPSSLSASVGDRVTITCRASQGISNYLAWFQQKPGKAPKSLIYDASSLQSGVPSKFSGSGSGTDFTLTISSLQPEDFATYYCQQYNSYPPSFGPGTKVDIK :: 10.27

Switching to the query record.
Asked: Returns the measured pKd for the input binder. Input: anti-SARS-CoV-2 antibody 1000 (antibody, V domains shown) VH: EVQLVQSGAEVKKPGESLKISCKASGYSFTIYWIGWVRQMPGKGLEWMGVIYPGDSDTRYSPSFQGQVTISADKSISTAYLQWSSLKASDTAMYYCALGYHSGSYPFNWFDPWGQGTLVTVSS VL: EIVMTQSPATLSVSPGERATLSCRASQSVSSNLAWYQQKPGQTPRLLIYGASTRATGIPARFSGSGSGTEFTLTISSLQSEDFAVYYCQQYDNLLTFGGGTKVEIK
Given back: 10.04
